- Tested on: PC-3
- Run description: Cytotoxicity against human PC3 cells assessed as reduction in cell viability incubated for 72 hrs by MTT assay
- Experimental setup: PC-3, 72 h
Catalogue of IC50 values
The reply should be a number in µM, with the unit left off.

* O=C(Nc1nc2ccc(Cl)cc2s1)c1cn(-c2ccccc2)nc1-c1ccc(Cl)cc1 | 3.23
* O=C(Nc1nc2ccc(F)cc2s1)c1cn(-c2ccccc2)nc1-c1ccc(F)cc1 | 5.26
* COc1ccc(-c2nn(-c3ccccc3)cc2C(=O)Nc2nc3ccc(OC)cc3s2)cc1 | 13.5

Enquiry: Form entry - test system: PC-3; read-out: IC50; molecule: `COc1ccc2nc(NC(=O)c3cn(-c4ccccc4)nc3-c3ccccc3)sc2c1`
Return: 17.5

Recorded values, source ChEMBL document CHEMBL4359898.
